Sourced from patent US12173002B2

- experiment: Mouse pharmacokinetic experiment
- Type: in vivo
- conditionLabel: male, ICR mice, PO 10 mg/kg, plasma
What AUC(0-t) was measured for each of the following?
Kindly answer with a numeric value in ng·h/mL, unit omitted.

# lookup: AUC(0-t) of [2H]C([2H])([2H])N(C(=O)c1cc2c(cc1F)nc(N)c1cncn12)[C@@H]1COc2cc(C(F)(F)F)ccc21
46300

# lookup: AUC(0-t) of CN(C(=O)c1ccc2nc(N)c3cncn3c2c1)[C@@H]1COc2cc(C(F)(F)F)ccc21
44100

# lookup: AUC(0-t) of CN(C(=O)c1ccc2nc(N)c3cncn3c2c1)[C@@H]1COc2cc(S(F)(F)(F)(F)F)ccc21 (single isomer, unassigned)
26500

# lookup: AUC(0-t) of [2H]C([2H])([2H])N(C(=O)c1ccc2nc(N)c3cncn3c2c1)[C@@H]1COc2cc(C(F)(F)F)ccc21
42500

# lookup: AUC(0-t) of CN(C(=O)c1cc2c(cn1)nc(N)c1cncn12)[C@@H]1COc2cc(C(F)(F)F)ccc21
21000

# lookup: AUC(0-t) of CN(C(=O)c1ccc2nc(N)c3cncn3c2c1)[C@@H]1COc2cc(C(F)(F)C(F)(F)F)ccc21
28300

====

- experiment: Mouse pharmacokinetic experiment
- Format: in vivo
- conditionLabel: male, plasma, ICR mice, PO 10 mg/kg
measuredEndpoint: half-life (h)
Kindly answer with a numeric value in h, unit omitted.

# lookup: half-life of [2H]C([2H])([2H])N(C(=O)c1cc2c(cc1F)nc(N)c1cncn12)[C@@H]1COc2cc(C(F)(F)F)ccc21
4.12

# lookup: half-life of CN(C(=O)c1ccc2nc(N)c3cncn3c2c1)[C@@H]1COc2cc(C(F)(F)C(F)(F)F)ccc21
3.34

# lookup: half-life of CN(C(=O)c1cc2c(cn1)nc(N)c1cncn12)[C@@H]1COc2cc(C(F)(F)F)ccc21
2.67

# lookup: half-life of CN(C(=O)c1ccc2nc(N)c3cncn3c2c1)[C@@H]1COc2cc(C(F)(F)F)ccc21
4.56

# lookup: half-life of CN(C(=O)c1ccc2nc(N)c3cncn3c2c1)[C@@H]1COc2cc(S(F)(F)(F)(F)F)ccc21 (single isomer, unassigned)
5.02

# lookup: half-life of [2H]C([2H])([2H])N(C(=O)c1ccc2nc(N)c3cncn3c2c1)[C@@H]1COc2cc(C(F)(F)F)ccc21
3.31

====

- Tested on: HCT-116 MTAP wild-type cells
- experiment: Inhibitory activity on proliferation of HCT-116 MTAP wild-type cells (Cell-Titer Glo, 8 days)
- Assay type: cell-based
- conditionLabel: Homo sapiens, HCT-116, 192 h, 8 days incubation
measuredEndpoint: pIC50
Entry type: numeric. Quantity: pIC50, the -log10 of concentration in molar units.

# lookup: pIC50 of Nc1nc2ccc(C(=O)N(C3CC3)C3COc4cc(Br)ccc43)cc2n2cncc12 (centres unmarked)
5.22

# lookup: pIC50 of CN(C(=O)c1ccc2nc(N)c3cncn3c2c1)[C@H]1COc2cc(S(F)(F)(F)(F)F)ccc21 (single isomer, unassigned)
5.20

# lookup: pIC50 of CN(C(=O)c1ccc2nc(N)c3cncn3c2c1)[C@@H]1COc2cc(Cl)ccc21
5.41

# lookup: pIC50 of [2H]c1ncn2c1c(N)nc1ccc(C(=O)N(C)[C@@H]3COc4cc(C(F)(F)F)ccc43)cc12
5.89

# lookup: pIC50 of N#Cc1ccc2c(c1)OC[C@H]2N(C(=O)c1ccc2nc(N)c3cncn3c2c1)C1CC1 (single isomer, unassigned)
5.32

# lookup: pIC50 of CN(C(=O)c1ccc2nc(N)c3cncn3c2c1)C1COCc2ccc(C(F)(F)F)cc21 (centres unmarked)
5.19

# lookup: pIC50 of CN(C(=O)c1cc2c(cc1F)nc(N)c1cncn12)[C@@H]1COc2cc(-c3cnn(C)c3)ccc21
5.18

# lookup: pIC50 of Nc1nc2ccc(C(=O)N(C3CC3)[C@H]3COc4cc(C(F)(F)F)ccc43)cc2n2cncc12 (single isomer, unassigned)
5.33

# lookup: pIC50 of CN(C(=O)c1ccc2nc(N)c3cncn3c2c1)C1CSc2cc(C(F)(F)F)ccc21 (centres unmarked)
5.52

# lookup: pIC50 of CN(C(=O)c1ccc2nc(N)c3cncn3c2c1)[C@@H]1COc2cc(S(F)(F)(F)(F)F)ccc21 (single isomer, unassigned)
6.23

# lookup: pIC50 of CN(C(=O)c1cc2c(cc1C#N)nc(N)c1cncn12)[C@@H]1COc2cc(C(F)(F)F)ccc21
5.89

# lookup: pIC50 of Nc1nc2ccc(C(=O)N(C3CC3)[C@@H]3COc4cc(Br)ccc43)cc2n2cncc12 (single isomer, unassigned)
5.72

# lookup: pIC50 of Nc1nc2ccc(C(=O)N(C3CC3)[C@H]3COc4cc(Br)ccc43)cc2n2cncc12
5.63

# lookup: pIC50 of C[C@@H]1OC[C@@H](N(C)C(=O)c2ccc3nc(N)c4cncn4c3c2)c2ccc(C(F)(F)F)cc21
5.66

# lookup: pIC50 of CN(C(=O)c1cc2c(cc1F)nc(N)c1cncn12)[C@@H]1COc2cc(S(C)(=O)=O)ccc21
5.39

# lookup: pIC50 of Nc1nc2cnc(C(=O)N(C3CC3)[C@H]3COc4cc(C(F)(F)F)ccc43)cc2n2cncc12 (single isomer, unassigned)
4.97

# lookup: pIC50 of Nc1nc2cnc(C(=O)N(C3CC3)[C@@H]3COc4cc(C(F)(F)F)ccc43)cc2n2cncc12 (single isomer, unassigned)
5.73

# lookup: pIC50 of CN(C(=O)c1ccc2nc(N)c3cncn3c2c1)[C@@H]1COCc2ccc(C(F)(F)F)cc21 (single isomer, unassigned)
5.29

# lookup: pIC50 of CN(C(=O)c1cc2c(cc1Cl)nc(N)c1cncn12)[C@@H]1COc2cc(C(F)(F)F)ccc21
6.07

# lookup: pIC50 of [2H]c1ncc2c(N)nc3ccc(C(=O)N(C)[C@@H]4COc5cc(C(F)(F)F)ccc54)cc3n12
5.68
